Data provenance is paper PMC7320011.

System: mouse colon carcinoma (CT-26) cells | Read-out: IC50
Please give a number only; it is taken to be in µM.

Consider the reported IC50 for these molecules:
{"item.smiles": "CN(C)c1ccc(/C=C/c2ccnc(-c3cc(/C=C/c4ccc(N(C)C)cc4)ccn3)c2)cc1.CN(C)c1ccc(/C=C/c2ccnc(-c3cc(/C=C/c4ccc(N(C)C)cc4)ccn3)c2)cc1.CN(C)c1ccc(/C=C/c2ccnc(-c3cc(/C=C/c4ccc(N(C)C)cc4)ccn3)c2)cc1.F[P-](F)(F)(F)(F)F.F[P-](F)(F)(F)(F)F.[Ru+2]", "observed.value": 42.6}
{"item.smiles": "COc1ccc(/C=C/c2ccnc(-c3cc(/C=C/c4ccc(OC)cc4)ccn3)c2)cc1.COc1ccc(/C=C/c2ccnc(-c3cc(/C=C/c4ccc(OC)cc4)ccn3)c2)cc1.COc1ccc(/C=C/c2ccnc(-c3cc(/C=C/c4ccc(OC)cc4)ccn3)c2)cc1.F[P-](F)(F)(F)(F)F.F[P-](F)(F)(F)(F)F.[Ru+2]", "observed.value": 19.3}
{"item.smiles": "CN(C)c1ccc(/C=C/c2ccnc(-c3cc(/C=C/c4ccc(N(C)C)cc4)ccn3)c2)cc1.CN(C)c1ccc(/C=C/c2ccnc(-c3cc(/C=C/c4ccc(N(C)C)cc4)ccn3)c2)cc1.F[P-](F)(F)(F)(F)F.F[P-](F)(F)(F)(F)F.[Ru+2].c1ccc(-c2ccccn2)nc1", "observed.value": 7.3}

Let us examine a further case.
Report IC50, nothing else, for this molecule: CN(C)c1ccc(/C=C/c2ccnc(-c3cc(/C=C/c4ccc(N(C)C)cc4)ccn3)c2)cc1.F[P-](F)(F)(F)(F)F.F[P-](F)(F)(F)(F)F.[Ru+2].c1ccc(-c2ccccn2)nc1.c1ccc(-c2ccccn2)nc1
2.4

====

experiment.notes: Emission and luminescence quantum yield
Type: physicochemical
conditions: acetonitrile
assay.metric: λem, emission maximum (nm)
Please give a number only; it is taken to be in nm.

Consider the reported λem, emission maximum for these molecules:
{"molecule": "CN(C)c1ccc(/C=C/c2ccnc(-c3cc(/C=C/c4ccc(N(C)C)cc4)ccn3)c2)cc1.CN(C)c1ccc(/C=C/c2ccnc(-c3cc(/C=C/c4ccc(N(C)C)cc4)ccn3)c2)cc1.CN(C)c1ccc(/C=C/c2ccnc(-c3cc(/C=C/c4ccc(N(C)C)cc4)ccn3)c2)cc1.F[P-](F)(F)(F)(F)F.F[P-](F)(F)(F)(F)F.[Ru+2] [compound 2]", "λem, emission maximum (nm)": 709}
{"molecule": "CN(C)c1ccc(/C=C/c2ccnc(-c3cc(/C=C/c4ccc(N(C)C)cc4)ccn3)c2)cc1.CN(C)c1ccc(/C=C/c2ccnc(-c3cc(/C=C/c4ccc(N(C)C)cc4)ccn3)c2)cc1.F[P-](F)(F)(F)(F)F.F[P-](F)(F)(F)(F)F.[Ru+2].c1ccc(-c2ccccn2)nc1 [compound 4]", "λem, emission maximum (nm)": 703}
{"molecule": "COc1ccc(/C=C/c2ccnc(-c3cc(/C=C/c4ccc(OC)cc4)ccn3)c2)cc1.F[P-](F)(F)(F)(F)F.F[P-](F)(F)(F)(F)F.[Ru+2].c1ccc(-c2ccccn2)nc1.c1ccc(-c2ccccn2)nc1 [compound 7]", "λem, emission maximum (nm)": 664}
{"molecule": "COc1ccc(/C=C/c2ccnc(-c3cc(/C=C/c4ccc(OC)cc4)ccn3)c2)cc1.COc1ccc(/C=C/c2ccnc(-c3cc(/C=C/c4ccc(OC)cc4)ccn3)c2)cc1.COc1ccc(/C=C/c2ccnc(-c3cc(/C=C/c4ccc(OC)cc4)ccn3)c2)cc1.F[P-](F)(F)(F)(F)F.F[P-](F)(F)(F)(F)F.[Ru+2] [compound 3]", "λem, emission maximum (nm)": 682}
{"molecule": "COc1ccc(/C=C/c2ccnc(-c3cc(/C=C/c4ccc(OC)cc4)ccn3)c2)cc1.COc1ccc(/C=C/c2ccnc(-c3cc(/C=C/c4ccc(OC)cc4)ccn3)c2)cc1.F[P-](F)(F)(F)(F)F.F[P-](F)(F)(F)(F)F.[Ru+2].c1ccc(-c2ccccn2)nc1 [compound 5]", "λem, emission maximum (nm)": 674}
{"molecule": "C(=C\\c1ccnc(-c2cc(/C=C/c3ccccc3)ccn2)c1)/c1ccccc1.C(=C\\c1ccnc(-c2cc(/C=C/c3ccccc3)ccn2)c1)/c1ccccc1.C(=C\\c1ccnc(-c2cc(/C=C/c3ccccc3)ccn2)c1)/c1ccccc1.F[P-](F)(F)(F)(F)F.F[P-](F)(F)(F)(F)F.[Ru+2] [compound 1]", "λem, emission maximum (nm)": 677}

Let us examine a further case.
Report λem, emission maximum, nothing else, for this molecule: CN(C)c1ccc(/C=C/c2ccnc(-c3cc(/C=C/c4ccc(N(C)C)cc4)ccn3)c2)cc1.F[P-](F)(F)(F)(F)F.F[P-](F)(F)(F)(F)F.[Ru+2].c1ccc(-c2ccccn2)nc1.c1ccc(-c2ccccn2)nc1 [compound 6]
697

====

Tested on: human cervical carcinoma (HeLa) cells
experiment.notes: (Photo-)cytotoxicity on 2D cell monolayers, HeLa
Assay type: cell-based
conditions: 540 nm, 1-3 as chloride salts, read-out: IC50 540 nm (40 min, 9.5 J cm-2)
pIC50: −log10 of the molar value.
Returns one of T or F; T when pIC50 is >= 5.

{"item.smiles": "C(=C\\c1ccnc(-c2cc(/C=C/c3ccccc3)ccn2)c1)/c1ccccc1.C(=C\\c1ccnc(-c2cc(/C=C/c3ccccc3)ccn2)c1)/c1ccccc1.C(=C\\c1ccnc(-c2cc(/C=C/c3ccccc3)ccn2)c1)/c1ccccc1.F[P-](F)(F)(F)(F)F.F[P-](F)(F)(F)(F)F.[Ru+2]", "study.system": "human cervical carcinoma (HeLa) cells", "label.class": "F"}

Say whether CN(C)c1ccc(/C=C/c2ccnc(-c3cc(/C=C/c4ccc(N(C)C)cc4)ccn3)c2)cc1.F[P-](F)(F)(F)(F)F.F[P-](F)(F)(F)(F)F.[Ru+2].c1ccc(-c2ccccn2)nc1.c1ccc(-c2ccccn2)nc1 shows pIC50 of 5 or more.
T

====

Recorded Singlet oxygen quantum yield, Indirect 540 nm PBS for the following compounds
experiment.notes: Singlet oxygen quantum yield, indirect evaluation (1O2 scavenger absorbance)
Type: physicochemical
conditions: 540 nm, PBS

{"item.smiles": "CN(C)c1ccc(/C=C/c2ccnc(-c3cc(/C=C/c4ccc(N(C)C)cc4)ccn3)c2)cc1.CN(C)c1ccc(/C=C/c2ccnc(-c3cc(/C=C/c4ccc(N(C)C)cc4)ccn3)c2)cc1.CN(C)c1ccc(/C=C/c2ccnc(-c3cc(/C=C/c4ccc(N(C)C)cc4)ccn3)c2)cc1.F[P-](F)(F)(F)(F)F.F[P-](F)(F)(F)(F)F.[Ru+2]", "observed.value": "1%"}
{"item.smiles": "COc1ccc(/C=C/c2ccnc(-c3cc(/C=C/c4ccc(OC)cc4)ccn3)c2)cc1.COc1ccc(/C=C/c2ccnc(-c3cc(/C=C/c4ccc(OC)cc4)ccn3)c2)cc1.F[P-](F)(F)(F)(F)F.F[P-](F)(F)(F)(F)F.[Ru+2].c1ccc(-c2ccccn2)nc1", "observed.value": "6%"}

Let us examine a further case.
Report Singlet oxygen quantum yield, Indirect 540 nm PBS, nothing else, for this compound: C(=C\c1ccnc(-c2cc(/C=C/c3ccccc3)ccn2)c1)/c1ccccc1.C(=C\c1ccnc(-c2cc(/C=C/c3ccccc3)ccn2)c1)/c1ccccc1.C(=C\c1ccnc(-c2cc(/C=C/c3ccccc3)ccn2)c1)/c1ccccc1.F[P-](F)(F)(F)(F)F.F[P-](F)(F)(F)(F)F.[Ru+2]
3%

====

System: mouse colon carcinoma (CT-26) cells
experiment.notes: (Photo-)cytotoxicity on 2D cell monolayers, CT-26
conditions: CT-26, dark vs 540 nm
assay.metric: PI (540 nm)

Consider the reported PI (540 nm) for these molecules:
{"molecule": "C=CC1=C(C)c2cc3[nH]c(cc4nc(cc5[nH]c(cc1n2)c(C)c5CCC(=O)O)C(CCC(=O)O)=C4C)c(C)c3C=C [PpIX, Protoporphyrin IX, reference compound]", "observed.value": "> 24.4"}
{"molecule": "CN(C)c1ccc(/C=C/c2ccnc(-c3cc(/C=C/c4ccc(N(C)C)cc4)ccn3)c2)cc1.CN(C)c1ccc(/C=C/c2ccnc(-c3cc(/C=C/c4ccc(N(C)C)cc4)ccn3)c2)cc1.F[P-](F)(F)(F)(F)F.F[P-](F)(F)(F)(F)F.[Ru+2].c1ccc(-c2ccccn2)nc1 [compound 4]", "observed.value": "> 10.4"}
{"molecule": "CN(C)c1ccc(/C=C/c2ccnc(-c3cc(/C=C/c4ccc(N(C)C)cc4)ccn3)c2)cc1.F[P-](F)(F)(F)(F)F.F[P-](F)(F)(F)(F)F.[Ru+2].c1ccc(-c2ccccn2)nc1.c1ccc(-c2ccccn2)nc1 [compound 6]", "observed.value": "> 32.3"}

Let us examine a further case.
Report PI (540 nm), nothing else, for this molecule: COc1ccc(/C=C/c2ccnc(-c3cc(/C=C/c4ccc(OC)cc4)ccn3)c2)cc1.F[P-](F)(F)(F)(F)F.F[P-](F)(F)(F)(F)F.[Ru+2].c1ccc(-c2ccccn2)nc1.c1ccc(-c2ccccn2)nc1 [compound 7]
> 111.1
